meta.source: patent US20100311714A1

Biological target: PI3K alfa (Homo sapiens)
Construct: His tag (C); made in house; host or cells: baculovirus BV1075; Tn5 (Trichoplusia ni) or TiniPro insect cells
Sequence (P42336 with tags, fused parts or gaps limits assumed): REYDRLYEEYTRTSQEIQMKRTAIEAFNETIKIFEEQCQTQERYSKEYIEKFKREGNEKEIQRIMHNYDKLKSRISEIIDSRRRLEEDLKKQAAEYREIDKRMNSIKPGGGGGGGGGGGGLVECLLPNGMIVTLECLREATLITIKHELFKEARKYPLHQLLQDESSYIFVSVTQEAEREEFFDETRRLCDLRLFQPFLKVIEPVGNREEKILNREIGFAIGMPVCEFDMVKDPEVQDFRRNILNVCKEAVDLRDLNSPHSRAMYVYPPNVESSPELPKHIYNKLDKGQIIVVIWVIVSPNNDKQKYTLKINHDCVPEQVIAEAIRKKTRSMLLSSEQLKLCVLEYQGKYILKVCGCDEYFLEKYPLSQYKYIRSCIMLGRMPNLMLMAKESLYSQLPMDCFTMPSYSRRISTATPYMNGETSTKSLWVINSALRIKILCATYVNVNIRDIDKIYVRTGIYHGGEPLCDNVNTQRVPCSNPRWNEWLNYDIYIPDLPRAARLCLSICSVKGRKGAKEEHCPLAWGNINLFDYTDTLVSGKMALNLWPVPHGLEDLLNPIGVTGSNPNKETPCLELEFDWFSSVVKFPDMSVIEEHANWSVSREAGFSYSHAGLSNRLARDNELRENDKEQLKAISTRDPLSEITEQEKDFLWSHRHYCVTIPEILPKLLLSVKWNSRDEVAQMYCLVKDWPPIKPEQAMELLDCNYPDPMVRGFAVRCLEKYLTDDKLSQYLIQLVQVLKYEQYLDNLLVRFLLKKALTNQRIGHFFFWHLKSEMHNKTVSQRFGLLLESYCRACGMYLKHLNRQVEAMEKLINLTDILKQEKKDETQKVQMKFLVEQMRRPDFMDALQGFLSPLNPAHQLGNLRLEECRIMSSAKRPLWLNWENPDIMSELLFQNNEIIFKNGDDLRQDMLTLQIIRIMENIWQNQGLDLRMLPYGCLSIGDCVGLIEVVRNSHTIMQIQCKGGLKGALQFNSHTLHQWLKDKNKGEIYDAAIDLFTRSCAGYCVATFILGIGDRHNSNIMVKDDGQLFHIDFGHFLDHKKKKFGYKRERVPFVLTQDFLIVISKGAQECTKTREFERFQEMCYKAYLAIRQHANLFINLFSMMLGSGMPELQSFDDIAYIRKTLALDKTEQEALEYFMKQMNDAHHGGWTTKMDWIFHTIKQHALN
Assay: PI3K alpha kinase assay (Kinase-Glo luminescence)
Format: biochemical
Conditions: read-out: PI3Kalfa/IC50
Method: In a more preferred assay, the kinase reaction is performed in a final volume of 10 μL per well of a low volume non binding CORNING, 384 well black plate (Cat. No. #3676). The final concentrations of ATP and phosphatidyl inositol (PI) in the assay are 1 μM and 10 μg/mL respectively. […] IC50 is determined by a four parameter curve fitting routine that comes along with “excel fit”. […] Alternatively, IC50 values are calculated using idbsXLfit model 204, which is a 4 parameter logistic model.
pIC50: −log10 of the molar value.
Measurement Name: pIC50

{"Given Smiles": "Cn1c(=O)n(-c2cccnc2F)c2c3cc(-c4cnc5[nH]ccc5c4)ccc3ncc21", "Assay Target": "PI3K alfa (Homo sapiens)", "Value Observed": 7.39}
{"Given Smiles": "CCOc1ccc(-c2ccc3ncc4c(c3c2)n(-c2cccnc2F)c(=O)n4C)cn1", "Assay Target": "PI3K alfa (Homo sapiens)", "Value Observed": 7.68}
{"Given Smiles": "CCOc1ccc(-c2ccc3ncc4c(c3c2)n(-c2cccnc2C)c(=O)n4C)cn1", "Assay Target": "PI3K alfa (Homo sapiens)", "Value Observed": 7.25}
{"Given Smiles": "COc1ncccc1-n1c(=O)n(C)c2cnc3ccc(-c4cnc(N(C)C)nc4)cc3c21", "Assay Target": "PI3K alfa (Homo sapiens)", "Value Observed": 7.15}
